# assayed-system: 6His-S-Importin β(1-876), full-length WT human importin β (human, UniProt Q14974 1-876)
# Sequence (Q14974 whole entry): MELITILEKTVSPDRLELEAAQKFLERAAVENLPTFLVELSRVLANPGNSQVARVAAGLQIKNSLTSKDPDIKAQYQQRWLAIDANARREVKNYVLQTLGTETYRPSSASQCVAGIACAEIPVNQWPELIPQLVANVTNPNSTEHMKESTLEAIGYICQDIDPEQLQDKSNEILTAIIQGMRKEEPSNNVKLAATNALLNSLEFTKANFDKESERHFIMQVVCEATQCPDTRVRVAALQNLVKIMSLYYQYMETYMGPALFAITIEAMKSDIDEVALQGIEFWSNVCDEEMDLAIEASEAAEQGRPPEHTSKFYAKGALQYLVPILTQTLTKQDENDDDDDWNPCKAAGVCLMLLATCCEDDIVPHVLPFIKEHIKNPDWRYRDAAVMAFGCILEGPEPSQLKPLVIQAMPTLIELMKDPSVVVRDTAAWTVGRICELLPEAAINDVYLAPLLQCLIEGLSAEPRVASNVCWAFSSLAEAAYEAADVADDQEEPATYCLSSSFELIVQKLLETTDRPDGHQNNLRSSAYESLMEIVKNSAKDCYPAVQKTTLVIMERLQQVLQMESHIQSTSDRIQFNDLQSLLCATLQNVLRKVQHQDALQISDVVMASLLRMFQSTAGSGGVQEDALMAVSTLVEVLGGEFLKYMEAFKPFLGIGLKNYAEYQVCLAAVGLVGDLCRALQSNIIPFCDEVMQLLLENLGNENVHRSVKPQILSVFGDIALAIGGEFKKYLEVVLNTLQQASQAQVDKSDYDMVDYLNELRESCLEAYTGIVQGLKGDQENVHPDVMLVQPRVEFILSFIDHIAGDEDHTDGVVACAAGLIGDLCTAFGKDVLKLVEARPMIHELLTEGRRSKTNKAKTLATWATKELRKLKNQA
# protocol-notes: FRET; displacement of importin β-bound Rango
assay-readout: pKd
// field semantics: pKd = negative decimal log of concentration (mol/L)

Data request: Consider the binder PRPRPRPRPRPRPRPRPRPRKC and give its measured pKd.
Data returned: 8.09

FYI, the data here is from paper PMC7051184.
